assay: In vitro metabolic stability in hepatic microsomes; assay type: in vitro ADME, rat; conditions: 10 min, liver microsomes, NADPH, compound 5 μM
assay-readout: % Remaining after 10 min incubation with liver microsomes

Previously resolved entries follow.
structure_as_smiles=Cc1ccc(S(=O)(=O)c2nnn3c2nc(NCc2cccs2)c2sccc23)cc1C val=<2%
structure_as_smiles=Cc1ccc(S(=O)(=O)c2nnn3c2nc(N2CCCCC2)c2sccc23)cc1C val=<2%
structure_as_smiles=CCc1ccc(S(=O)(=O)c2nnn3c2nc(NCCCOC(C)C)c2sccc23)cc1 val=<2%

Then this molecule:
Please indicate % Remaining after 10 min incubation with liver microsomes recorded for `CCc1ccc(S(=O)(=O)c2nnn3c2nc(NCc2cccc(OC)c2)c2sccc23)cc1` <2%
